Ref: patent US20100015058A1

- experimental-details: MicroPET blood and normal organ uptake in T47D and MDA-MB-435 tumor-bearing nude mice
- reported-conditions: nude, mouse, liver, iv, total radioactivity
measured-metric: tissue uptake at 2 h (%ID/g)
The reply should contain only the number, in %ID/g.

## Input tissue uptake at 2 h for CSCC[C@H](NC(=O)[C@H](CC(C)C)NC(=O)[C@H](Cc1c[nH]cn1)NC(=O)CNC(=O)[C@@H](NC(=O)[C@H](C)NC(=O)[C@H](Cc1c[nH]c2ccccc12)NC(=O)[C@H](CCC(N)=O)NC(=O)CCCCCNC(=O)CC[C@H](NC(=O)COCCOCCOCCNC(=O)c1ccc([18F])cc1)C(=O)NCCCC[C@@H]1NC(=O)[C@@H](Cc2ccc(O)cc2)NC(=O)[C@H](CC(=O)O)NC(=O)CNC(=O)[C@H](CCCNC(=N)N)NC1=O)C(C)C)C(N)=O [^18F-FB-PEG3-RGD-BBN] ?
## Output 0.23

###

- experimental-details: in vivo
- reported-conditions: mouse, in vivo, iv, 5.5 MBq, total radioactivity, Blood uptake
measured-metric: tissue uptake at 20 h (%ID/g)
The reply should contain only the number, in %ID/g.

## Input tissue uptake at 20 h for CSCC[C@H](NC(=O)[C@H](CC(C)C)NC(=O)[C@H](Cc1c[nH]cn1)NC(=O)CNC(=O)[C@@H](NC(=O)[C@H](C)NC(=O)[C@H](Cc1c[nH]c2ccccc12)NC(=O)[C@H](CCC(N)=O)NC(=O)CCCCCNC(=O)CC[C@H](NC(=S)Nc1ccc(C[C@H]2CN(CC(=O)O)CCN(CC(=O)O)CCN2CC(=O)O)cc1)C(=O)NCCCC[C@@H]1NC(=O)[C@@H](Cc2ccc(O)cc2)NC(=O)[C@H](CC(=O)O)NC(=O)CNC(=O)[C@H](CCCNC(=N)N)NC1=O)C(C)C)C(N)=O [^64Cu-NOTA-RGD-BBN, metal not drawn] ?
## Output 0.5

## Input Follow-up entry: CSCC[C@H](NC(=O)[C@H](CC(C)C)NC(=O)[C@H](Cc1c[nH]cn1)NC(=O)CNC(=O)[C@@H](NC(=O)[C@H](C)NC(=O)[C@H](Cc1c[nH]c2ccccc12)NC(=O)[C@H](CCC(N)=O)NC(=O)CCCCCNC(=O)CC[C@H](NC(=O)CN1CCN(CC(=O)O)CCN(CC(=O)O)CCN(CC(=O)O)CC1)C(=O)NCCCC[C@@H]1NC(=O)[C@@H](Cc2ccc(O)cc2)NC(=O)[C@H](CC(=O)O)NC(=O)CNC(=O)[C@H](CCCNC(=N)N)NC1=O)C(C)C)C(N)=O [^64Cu-DOTA-RGD-BBN, metal not drawn]
## Output 0.31

## Input Follow-up entry: CSCC[C@H](NC(=O)[C@H](CC(C)C)NC(=O)[C@H](Cc1c[nH]cn1)NC(=O)CNC(=O)[C@@H](NC(=O)[C@H](C)NC(=O)[C@H](Cc1c[nH]c2ccccc12)NC(=O)[C@H](CCC(N)=O)NC(=O)CCCCCNC(=S)Nc1ccc(C[C@H]2CN(CC(=O)O)CCN(CC(=O)O)CCN2CC(=O)O)cc1)C(C)C)C(N)=O [^64Cu-NOTA-BBN, metal not drawn, reference compound]
## Output 0.15

## Input Follow-up entry: N=C(N)NCCC[C@@H]1NC(=O)[C@H](CCCCNC(=S)Nc2ccc(C[C@H]3CN(CC(=O)O)CCN(CC(=O)O)CCN3CC(=O)O)cc2)NC(=O)[C@@H](Cc2ccc(O)cc2)NC(=O)[C@H](CC(=O)O)NC(=O)CNC1=O [^64Cu-NOTA-RGD, metal not drawn, reference compound]
## Output 0.34

###

- experimental-details: Small-animal PET of PC-3 tumor-bearing mice
- reported-conditions: male, athymic nude, mouse, in vivo, iv, 3.7 MBq, total radioactivity, PC-3 tumor uptake, PET ROI, 60 min after injection of 3.7 MBq, no blocking
measured-metric: tissue uptake at 1 h (%ID/g)
The reply should contain only the number, in %ID/g.

## Input tissue uptake at 1 h for CSCC[C@H](NC(=O)[C@H](CC(C)C)NC(=O)[C@H](Cc1c[nH]cn1)NC(=O)CNC(=O)[C@@H](NC(=O)[C@H](C)NC(=O)[C@H](Cc1c[nH]c2ccccc12)NC(=O)[C@H](CCC(N)=O)NC(=O)CCCCCNC(=O)c1ccc(F)cc1)C(C)C)C(N)=O [^18F-FB-BBN, reference compound] ?
## Output 0.44

###

- experimental-details: MicroPET blood and normal organ uptake in T47D and MDA-MB-435 tumor-bearing nude mice
- reported-conditions: female, nude, mouse, kidney, iv, total radioactivity, Kidney uptake, average of eight mice, 2 h
measured-metric: tissue uptake at 2 h (%ID/g)
The reply should contain only the number, in %ID/g.

## Input tissue uptake at 2 h for CSCC[C@H](NC(=O)[C@H](CC(C)C)NC(=O)[C@H](Cc1c[nH]cn1)NC(=O)CNC(=O)[C@@H](NC(=O)[C@H](C)NC(=O)[C@H](Cc1c[nH]c2ccccc12)NC(=O)[C@H](CCC(N)=O)NC(=O)CCCCCNC(=O)CC[C@H](NC(=S)Nc1ccc(C[C@H]2CN(CC(=O)O)CCN(CC(=O)O)CCN2CC(=O)O)cc1)C(=O)NCCCC[C@@H]1NC(=O)[C@@H](Cc2ccc(O)cc2)NC(=O)[C@H](CC(=O)O)NC(=O)CNC(=O)[C@H](CCCNC(=N)N)NC1=O)C(C)C)C(N)=O [^68Ga-NOTA-RGD-BBN, metal not drawn] ?
## Output 1.64

###

- experimental-details: MicroPET of T47D tumor-bearing mice
- Format: in vivo
- reported-conditions: female, nude, mouse, T47D tumor, iv, total radioactivity, orthotopic model, 4 h
measured-metric: tissue uptake at 4 h (%ID/g)
The reply should contain only the number, in %ID/g.

## Input tissue uptake at 4 h for CSCC[C@H](NC(=O)[C@H](CC(C)C)NC(=O)[C@H](Cc1c[nH]cn1)NC(=O)CNC(=O)[C@@H](NC(=O)[C@H](C)NC(=O)[C@H](Cc1c[nH]c2ccccc12)NC(=O)[C@H](CCC(N)=O)NC(=O)CCCCCNC(=O)CC[C@H](NC(=S)Nc1ccc(C[C@H]2CN(CC(=O)O)CCN(CC(=O)O)CCN2CC(=O)O)cc1)C(=O)NCCCC[C@@H]1NC(=O)[C@@H](Cc2ccc(O)cc2)NC(=O)[C@H](CC(=O)O)NC(=O)CNC(=O)[C@H](CCCNC(=N)N)NC1=O)C(C)C)C(N)=O [^64Cu-NOTA-RGD-BBN, metal not drawn] ?
## Output 1.94

###

- experimental-details: in vivo
- reported-conditions: male, athymic nude, mouse, in vivo, iv, 5.5 MBq, total radioactivity, PC-3 tumor uptake with BBN blocking
measured-metric: tissue uptake at 1 h (%ID/g)
The reply should contain only the number, in %ID/g.

## Input tissue uptake at 1 h for CSCC[C@H](NC(=O)[C@H](CC(C)C)NC(=O)[C@H](Cc1c[nH]cn1)NC(=O)CNC(=O)[C@@H](NC(=O)[C@H](C)NC(=O)[C@H](Cc1c[nH]c2ccccc12)NC(=O)[C@H](CCC(N)=O)NC(=O)CCCCCNC(=O)CC[C@H](NC(=S)Nc1ccc(C[C@H]2CN(CC(=O)O)CCN(CC(=O)O)CCN2CC(=O)O)cc1)C(=O)NCCCC[C@@H]1NC(=O)[C@@H](Cc2ccc(O)cc2)NC(=O)[C@H](CC(=O)O)NC(=O)CNC(=O)[C@H](CCCNC(=N)N)NC1=O)C(C)C)C(N)=O [^64Cu-NOTA-RGD-BBN, metal not drawn] ?
## Output 0.76

###

Assign tissue uptake at 1 h to each entry below.
- experimental-details: MicroPET of T47D tumor-bearing mice
- Assay type: in vivo
- reported-conditions: female, nude, mouse, T47D tumor, iv, total radioactivity, orthotopic model, 1 h
Write the numeric value and append its unit.

## Input tissue uptake at 1 h for CSCC[C@H](NC(=O)[C@H](CC(C)C)NC(=O)[C@H](Cc1c[nH]cn1)NC(=O)CNC(=O)[C@@H](NC(=O)[C@H](C)NC(=O)[C@H](Cc1c[nH]c2ccccc12)NC(=O)[C@H](CCC(N)=O)NC(=O)CCCCCNC(=O)CC[C@H](NC(=S)Nc1ccc(C[C@H]2CN(CC(=O)O)CCN(CC(=O)O)CCN2CC(=O)O)cc1)C(=O)NCCCC[C@@H]1NC(=O)[C@@H](Cc2ccc(O)cc2)NC(=O)[C@H](CC(=O)O)NC(=O)CNC(=O)[C@H](CCCNC(=N)N)NC1=O)C(C)C)C(N)=O [^68Ga-NOTA-RGD-BBN, metal not drawn] ?
## Output 2.78 %ID/g

## Input Follow-up entry: CSCC[C@H](NC(=O)[C@H](CC(C)C)NC(=O)[C@H](Cc1c[nH]cn1)NC(=O)CNC(=O)[C@@H](NC(=O)[C@H](C)NC(=O)[C@H](Cc1c[nH]c2ccccc12)NC(=O)[C@H](CCC(N)=O)NC(=O)CCCCCNC(=O)CC[C@H](NC(=O)COCCOCCOCCNC(=O)c1ccc([18F])cc1)C(=O)NCCCC[C@@H]1NC(=O)[C@@H](Cc2ccc(O)cc2)NC(=O)[C@H](CC(=O)O)NC(=O)CNC(=O)[C@H](CCCNC(=N)N)NC1=O)C(C)C)C(N)=O [^18F-FB-PEG3-RGD-BBN]
## Output 1.81 %ID/g
